targetSystem: Nocturnin (NOCT) (Homo sapiens)
Sequence (Q9UK39 122-431): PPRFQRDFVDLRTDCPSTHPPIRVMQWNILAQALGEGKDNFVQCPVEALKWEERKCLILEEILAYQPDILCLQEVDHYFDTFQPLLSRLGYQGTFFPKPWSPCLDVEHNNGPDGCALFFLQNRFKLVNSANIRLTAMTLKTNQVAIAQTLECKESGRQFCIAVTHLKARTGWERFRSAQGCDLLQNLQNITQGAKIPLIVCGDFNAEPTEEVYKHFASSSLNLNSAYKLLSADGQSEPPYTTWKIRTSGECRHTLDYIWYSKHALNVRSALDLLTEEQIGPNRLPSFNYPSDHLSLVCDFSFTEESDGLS

lineNotation: NC(=O)C1=CN([C@@H]2O[C@H](COP(=O)(O)OP(=O)(O)OC[C@H]3O[C@@H](n4cnc5c(N)ncnc54)[C@H](OP(=O)(O)O)[C@@H]3O)[C@@H](O)[C@H]2O)C=CC1
Kd: 308 µM
